Target: T1, CD96 (UniProt P40200 22-585, limits assumed)
T1 construct: whole, on cells
T1 sequence (looked up): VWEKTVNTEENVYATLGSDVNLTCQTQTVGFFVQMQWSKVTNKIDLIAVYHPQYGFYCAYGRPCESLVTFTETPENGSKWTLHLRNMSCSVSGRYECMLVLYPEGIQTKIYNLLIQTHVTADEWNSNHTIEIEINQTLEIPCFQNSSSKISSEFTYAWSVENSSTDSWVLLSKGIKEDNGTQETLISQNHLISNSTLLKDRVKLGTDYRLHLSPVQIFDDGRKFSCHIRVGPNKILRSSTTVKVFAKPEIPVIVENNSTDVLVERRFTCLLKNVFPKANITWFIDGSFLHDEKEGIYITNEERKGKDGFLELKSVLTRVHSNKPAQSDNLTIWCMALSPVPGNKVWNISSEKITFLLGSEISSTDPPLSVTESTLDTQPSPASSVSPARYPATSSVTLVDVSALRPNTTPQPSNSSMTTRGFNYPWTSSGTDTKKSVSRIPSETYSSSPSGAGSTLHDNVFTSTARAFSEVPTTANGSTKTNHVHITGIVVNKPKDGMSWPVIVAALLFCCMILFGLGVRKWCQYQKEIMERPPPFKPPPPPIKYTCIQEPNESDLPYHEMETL
Experiment: flow cytometry on cells expressing CD96, Fc fusion at 100 nM
Met means recorded MFI at 100 nM is 2000 MFI or above; Not met means it is below 2000 MFI.

{"columns": ["BINDER", "GROUP LABEL"],
 "data": [
  ["CD155 S42V/S52E variant IgV-Fc fusion (Fc fusion, not shown: a dimerising Fc or GST) WPPPGTGDVVVQAPTQVPGFLGDSVTLPCYLQVPNMEVTHVVQLTWARHGEEGSMAVFHQTQGPSYSESKRLEFVAARLGAELRNASLRMFGLRVEDEGNYTCLFVTFPQGSRSVDIWLRVL", "Met"],
  ["CD155 T45Q/S52Q variant IgV-Fc fusion (Fc fusion, not shown: a dimerising Fc or GST) WPPPGTGDVVVQAPTQVPGFLGDSVTLPCYLQVPNMEVTHVSQLQWARHGEQGSMAVFHQTQGPSYSESKRLEFVAARLGAELRNASLRMFGLRVEDEGNYTCLFVTFPQGSRSVDIWLRVL", "Met"],
  ["CD155 S52L/L104E variant IgV-Fc fusion (Fc fusion, not shown: a dimerising Fc or GST) WPPPGTGDVVVQAPTQVPGFLGDSVTLPCYLQVPNMEVTHVSQLTWARHGELGSMAVFHQTQGPSYSESKRLEFVAARLGAELRNASLRMFGLRVEDEGNYTCEFVTFPQGSRSVDIWLRVL", "Not met"],
  ["CD155 S42N variant IgV-Fc fusion (Fc fusion, not shown: a dimerising Fc or GST) WPPPGTGDVVVQAPTQVPGFLGDSVTLPCYLQVPNMEVTHVNQLTWARHGESGSMAVFHQTQGPSYSESKRLEFVAARLGAELRNASLRMFGLRVEDEGNYTCLFVTFPQGSRSVDIWLRVL", "Not met"],
  ["CD155 S42A variant IgV-Fc fusion (Fc fusion, not shown: a dimerising Fc or GST) WPPPGTGDVVVQAPTQVPGFLGDSVTLPCYLQVPNMEVTHVAQLTWARHGESGSMAVFHQTQGPSYSESKRLEFVAARLGAELRNASLRMFGLRVEDEGNYTCLFVTFPQGSRSVDIWLRVL", "Not met"],
  ["CD155 T45Q/S52R/G111R variant IgV-Fc fusion (Fc fusion, not shown: a dimerising Fc or GST) WPPPGTGDVVVQAPTQVPGFLGDSVTLPCYLQVPNMEVTHVSQLQWARHGERGSMAVFHQTQGPSYSESKRLEFVAARLGAELRNASLRMFGLRVEDEGNYTCLFVTFPQRSRSVDIWLRVL", "Met"],
  ["CD155 S42N/S52E/V57L/L104E variant IgV-Fc fusion (Fc fusion, not shown: a dimerising Fc or GST) WPPPGTGDVVVQAPTQVPGFLGDSVTLPCYLQVPNMEVTHVNQLTWARHGEEGSMALFHQTQGPSYSESKRLEFVAARLGAELRNASLRMFGLRVEDEGNYTCEFVTFPQGSRSVDIWLRVL", "Not met"],
  ["CD155 S42C/S52M/Q62F variant IgV-Fc fusion (Fc fusion, not shown: a dimerising Fc or GST) WPPPGTGDVVVQAPTQVPGFLGDSVTLPCYLQVPNMEVTHVCQLTWARHGEMGSMAVFHQTFGPSYSESKRLEFVAARLGAELRNASLRMFGLRVEDEGNYTCLFVTFPQGSRSVDIWLRVL", "Not met"],
  ["CD155 S42L variant IgV-Fc fusion (Fc fusion, not shown: a dimerising Fc or GST) WPPPGTGDVVVQAPTQVPGFLGDSVTLPCYLQVPNMEVTHVLQLTWARHGESGSMAVFHQTQGPSYSESKRLEFVAARLGAELRNASLRMFGLRVEDEGNYTCLFVTFPQGSRSVDIWLRVL", "Not met"],
  ["CD155 S42G/S52L/Q62F/L104Q variant IgV-Fc fusion (Fc fusion, not shown: a dimerising Fc or GST) WPPPGTGDVVVQAPTQVPGFLGDSVTLPCYLQVPNMEVTHVGQLTWARHGELGSMAVFHQTFGPSYSESKRLEFVAARLGAELRNASLRMFGLRVEDEGNYTCQFVTFPQGSRSVDIWLRVL", "Not met"]
]}
